Tested on: MOLT-4 cells
Test: MOLT-4 cell viability, MTT assay
Format: cell-based
Conditions: Homo sapiens, MOLT-4, 48 h, 48 h exposure
pIC50: −log10 of the molar value.
Label rule, in plain words: pIC50 of 7 and up is Criterion met, under 7 is Criterion not met.

Please indicate if the recorded pIC50 for CNCC#Cc1ccc(OCCCc2sc(N(CCCCCN=[N+]=[N-])c3cc(C)c(Nc4nc5ccccc5s4)nn3)nc2C(=O)O)c(F)c1 meets or exceeds 7.
Criterion met

Try this compound too: Cc1cc(N(C)c2nc(C(=O)O)c(CCCOc3ccc(C45CC(CN(C)C)(C4)C5)cc3)s2)nnc1Nc1nc2ccccc2s1
Criterion met

Try this compound too: Cc1cc(N(C)c2nc(C(=O)O)c(CCCOc3ccc(C#CCNCCN(C)C)cc3F)s2)nnc1Nc1nc2ccccc2s1
Criterion met

Try this compound too: Cc1cc(N(CCCP(=O)(O)O)c2nc(C(=O)O)c(CCCOc3ccc(C#CCN(C)C)cc3F)s2)nnc1Nc1nc2ccccc2s1
Criterion not met

Try this compound too: CNCC#Cc1ccc(OCCCc2sc(N(CCC[N+](C)(C)CCCS(=O)(=O)[O-])c3cc(C)c(Nc4nc5ccccc5s4)nn3)nc2C(=O)O)c(F)c1
Criterion not met

Try this compound too: COCCCN(c1cc(C)c(Nc2nc3ccccc3s2)nn1)c1nc(C(=O)O)c(CCCOC2CCCCC2)s1
Criterion not met

Try this compound too: Cc1cc(N(CCCCCNCCN2CCN(C)CC2)c2nc(C(=O)O)c(CCCOc3ccc(C#CCN(C)C)cc3F)s2)nnc1Nc1nc2ccccc2s1
Criterion not met

Try this compound too: COCCCc1sc(Nc2nnc(Nc3nc4ccccc4s3)c(C)c2C)nc1C(=O)O
Criterion not met

Try this compound too: COCCCC1(Cn2ncc(-c3sc(Nc4nnc(Nc5nc6ccccc6s5)c(C)c4C)nc3C(=O)O)c2C)CCCCCCC1
Criterion not met

Try this compound too: Cc1cc(N(CCCCP(=O)(O)O)c2nc(C(=O)O)c(CCCOc3ccc(C#CCN(C)C)cc3F)s2)nnc1Nc1nc2ccccc2s1
Criterion not met

Try this compound too: COCCCc1sc(N(C)c2cc(C)c(Nc3nc4ccccc4s3)nn2)nc1C(=O)O
Criterion not met

Try this compound too: CNCC#Cc1ccc(OCCCc2sc(N(CCCC(O)CN3CCOCC3)c3cc(C)c(Nc4nc5ccccc5s4)nn3)nc2C(=O)O)c(F)c1 (stereo not drawn)
Criterion met

Try this compound too: Cc1c(Nc2nc(C(=O)O)c(-c3cnn(CC45CC6CC(CC(C6)C4)C5)c3C)s2)nnc(Nc2nc3ccccc3s2)c1C
Criterion not met

Try this compound too: Cc1cc(N(CCCCCNCCCN2CCN(C)CC2)c2nc(C(=O)O)c(CCCOc3ccc(C#CCN(C)C)cc3F)s2)nnc1Nc1nc2ccccc2s1
Criterion not met

Try this compound too: Cc1cc(N(C)c2nc(C(=O)O)c(CC(O)COc3ccc(C#CCN(C)C)cc3F)s2)nnc1Nc1nc2ccccc2s1 (stereo not drawn)
Criterion met

Try this compound too: Cc1c(Nc2nc(C(=O)O)cs2)nnc(Nc2nc3cc(F)c(F)cc3s2)c1C
Criterion not met

Try this compound too: COCCCN(c1cc(C)c(Nc2nc3ccccc3s2)nn1)c1nc(C(=O)O)c(-c2cnn(CC34CC5CC(CC(C5)C3)C4)c2C)s1
Criterion not met

Try this compound too: Cc1ccc(S(=O)(=O)N(C)CC#Cc2ccc(OCCCc3sc(N(CCC(O)CO)c4cc(C)c(Nc5nc6ccccc6s5)nn4)nc3C(=O)O)c(F)c2)cc1 (stereo not drawn)
Criterion not met

Try this compound too: Cc1cc(N(C)c2nc(C(=O)O)c(CCCOc3ccc(C#CCNCC[N+](C)(C)CCCS(=O)(=O)[O-])cc3F)s2)nnc1Nc1nc2ccccc2s1
Criterion not met

Try this compound too: Cc1c(-c2sc(N(C)c3cc(C4CC4)c(Nc4nc5ccccc5s4)nn3)nc2C(=O)O)cnn1CC12CC3CC(CC(C3)C1)C2
Criterion not met

Try this compound too: Cc1cc(N(C)c2nc(C(=O)O)c(C3CCN(S(C)(=O)=O)CC3)s2)nnc1Nc1nc2ccccc2s1
Criterion not met

Try this compound too: COC(CO)CCN(c1cc(C)c(Nc2nc3ccccc3s2)nn1)c1nc(C(=O)O)cs1 (stereo not drawn)
Criterion not met

====

System: H146 cells
Assay: H146 cell viability, MTT assay
Assay type: cell-based
Details: Homo sapiens, NCI-H146, 48 h, 48 h exposure
Measurement Type: IC50 (nM)
Give the number; nM is assumed, so skip it.

Fill in the blank: the reported IC50 of CNCCCc1ccc(OCCCc2sc(N(CCCCO)c3cc(C)c(Nc4nc5ccccc5s4)nn3)nc2C(=O)O)c(F)c1 is ____.
16.9

Try this compound too: CNCCN(C)CC#Cc1ccc(OCCCc2sc(N(C)c3cc(C)c(Nc4nc5ccccc5s4)nn3)nc2C(=O)O)c(F)c1
6.78

Try this compound too: COCCCN(c1cc(C)c(Nc2nc3ccccc3s2)nn1)c1nc(C(=O)O)c(CCCOc2ccc(C#CCN(C)C)cc2F)s1
35.2

Try this compound too: Cc1cc(N(CCCC(O)C[N+]23CCN(CC2)CC3)c2nc(C(=O)[O-])c(CCCOc3ccc(C#CCN(C)C)cc3F)s2)nnc1Nc1nc2ccccc2s1 (stereo not shown)
222

Try this compound too: CNC/C=C/c1ccc(OCCCc2sc(N(CCCCO)c3cc(C)c(Nc4nc5ccccc5s4)nn3)nc2C(=O)O)c(F)c1
7

Try this compound too: Cc1c(-c2sc(N(C)c3cc(C4CC4)c(Nc4nc5ccccc5s4)nn3)nc2C(=O)O)cnn1CC12CC3CC(CC(C3)C1)C2
1650

====

Test system: H146 cells
Assay: H146 cell viability, MTT assay
Format: cell-based
Conditions: 48 h exposure
Please respond with reported pIC50 for every item in the list.
Just the number, please; pIC50 means minus log10 of the concentration in mol/L.

Fill in the blank: the reported pIC50 of Cc1cc(N(C)c2nc(C(=O)O)c(CCCOc3ccc(C#CC(C)N4CCOCC4)cc3F)s2)nnc1Nc1nc2ccccc2s1 (single isomer, unassigned) [Example 208] is ____.
8.13

Try this molecule too: Cc1cc(N(C)c2nc(C(=O)O)c(CCCOc3ccc(C#CC(C)N4CCOCC4)cc3F)s2)nnc1Nc1nc2ccccc2s1 (single isomer, unassigned) [Example 206]
7.82

====

Test system: MOLT-4 cells
Test: MOLT-4 cell viability, MTT assay
Assay type: cell-based
Conditions: Homo sapiens, MOLT-4, 48 h, 48 h exposure
Measurement Type: pIC50
Just the number, please; pIC50 means minus log10 of the concentration in mol/L.

Fill in the blank: the reported pIC50 of Cc1cc(N(CCC(O)CO)c2nc(C(=O)O)c(CCCOc3ccc(C#CCN(C)C)cc3F)s2)nnc1Nc1nc2ccccc2s1 (stereo not drawn) is ____.
7.78

Try this compound too: Cc1cc(N(C)c2nc(C(=O)O)c(N3CCC(OCc4ccccc4)CC3)s2)nnc1Nc1nc2ccccc2s1
5.53

Try this compound too: Cc1cc(N(CCCC(O)C[N+]2(C)CCCCC2)c2nc(C(=O)[O-])c(CCCOc3ccc(C#CCN(C)C)cc3F)s2)nnc1Nc1nc2ccccc2s1 (stereo not drawn)
6.01

====

Please respond with reported log10 IC50 for every item in the list.
Test system: MOLT-4 cells
Assay: MOLT-4 cell viability, MTT assay
Assay type: cell-based
Conditions: Homo sapiens, MOLT-4, 48 h, 48 h exposure
Friendly reminder: values = log10 of IC50, unit nM.

Fill in the blank: the reported log10 IC50 of COCCCC1(Cn2ncc(-c3sc(N(C)c4cc(C)c(Nc5nc6ccccc6s5)nn4)nc3C(=O)O)c2C)CCCCC1 is ____.
3.01

Try this compound too: CNCC#Cc1ccc(OCCCc2sc(N(CC[N+](C)(C)C)c3cc(C)c(Nc4nc5ccccc5s4)nn3)nc2C(=O)[O-])c(F)c1
2.62

Try this compound too: Cc1cc(N(C)c2nc(C(=O)O)c(CCCOc3ccc(C#CCN4CCCCC4)cc3F)s2)nnc1Nc1nc2ccccc2s1
-0.15

Try this compound too: Cc1cc(N(C)c2nc(C(=O)[O-])c(CCCOc3ccc(C#CCNCC[N+](C)(C)C)cc3F)s2)nnc1Nc1nc2ccccc2s1
1.79

Try this compound too: CNCC#Cc1ccc(OCCCc2sc(N(CCCCCN(C)C)c3cc(C)c(Nc4nc5ccccc5s4)nn3)nc2C(=O)O)c(F)c1
1.97

Try this compound too: COCCCC1(Cn2ncc(-c3sc(Nc4nnc(Nc5nc6ccccc6s5)c(C)c4C)nc3C(=O)O)c2C)CCCCC1
3.54

Try this compound too: Cc1cc(N(CCCC(O)C[N+]23CCC(CC2)CC3)c2nc(C(=O)[O-])c(CCCOc3ccc(C#CCN(C)C)cc3F)s2)nnc1Nc1nc2ccccc2s1 (stereo not shown)
2.61

Try this compound too: O=C(O)c1cccc(Nc2nnc(Nc3nc4ccccc4s3)c3c2CCC3)n1
3.85

Try this compound too: Cc1cc(N(CCCCCNCCN2CCOCC2)c2nc(C(=O)O)c(CCCOc3ccc(C#CCN(C)C)cc3F)s2)nnc1Nc1nc2ccccc2s1
2.24

Try this compound too: Cc1cc(N(C)c2nc(C(=O)O)c(CCCOc3ccccc3F)s2)nnc1Nc1nc2ccccc2s1
1.88

Try this compound too: Cc1cc(N(C)c2nc(C(=O)O)c(C[C@H](C)COc3ccc(C#CCN(C)C)cc3F)s2)nnc1Nc1nc2ccccc2s1
0.51

Try this compound too: CNCC#Cc1ccc(OCCCc2sc(N(CCCN(C)C)c3cc(C)c(Nc4nc5ccccc5s4)nn3)nc2C(=O)O)c(F)c1
2.84

Try this compound too: CNCC#Cc1ccc(OCCCc2sc(N(CCCCO)c3cc(C)c(Nc4nc5ccccc5s4)nn3)nc2C(=O)O)c(F)c1
0.58

Try this compound too: CNCCCc1ccc(OCCCc2sc(N(CCCCO)c3cc(C)c(Nc4nc5ccccc5s4)nn3)nc2C(=O)O)c(F)c1
1.93

Try this compound too: CN(c1cc(C2CC2)c(Nc2nc3ccccc3s2)nn1)c1nc(C(=O)O)cs1
3.37

Try this compound too: CNCC#Cc1ccc(OCCCc2sc(N(CCCC(O)CO)c3cc(C)c(Nc4nc5ccccc5s4)nn3)nc2C(=O)O)c(F)c1 (stereo not shown)
1.99

Try this compound too: CNCC#Cc1ccc(OCCCc2sc(N(CCCO)c3cc(C)c(Nc4nc5ccccc5s4)nn3)nc2C(=O)O)c(F)c1
1.05

Try this compound too: Cc1cc(N(C)c2nc(C(=O)O)c(N3CC(Oc4ccccc4)C3)s2)nnc1Nc1nc2ccccc2s1
2.65

Try this compound too: Cc1cc(N(C)c2nc(C(=O)O)c(CC(C)COc3ccc(C#CCN(C)C)cc3F)s2)nnc1Nc1nc2ccccc2s1 (stereo not shown)
0.49

Try this compound too: CNCC#Cc1ccc(OCCCc2sc(N(CC(O)CO)c3cc(C)c(Nc4nc5ccccc5s4)nn3)nc2C(=O)O)c(F)c1 (stereo not shown)
2.69

Try this compound too: COCCCN(c1cc(C)c(Nc2nc3ccccc3s2)nn1)c1nc(C(=O)O)c(CCCOc2ccc(C#CCN(C)C)cc2F)s1
0.71

Try this compound too: CNCCCCCN(c1cc(C)c(Nc2nc3ccccc3s2)nn1)c1nc(C(=O)O)c(CCCOc2ccc(C#CCN(C)C)cc2F)s1
2.11

Try this compound too: CNCCN(C)CC(O)CCCN(c1cc(C)c(Nc2nc3ccccc3s2)nn1)c1nc(C(=O)O)c(CCCOc2ccc(C#CCN(C)C)cc2F)s1 (stereo not shown)
2.03
